system: OVCAR-5 ovarian; experiment: NCI tumour cell line growth inhibition, 48 h
readout.type: TGI (µM)
Answer format: numeric, µM implied, no suffix.

[
  {
    "compound": "CCC1(OC(=O)CNC)C(=O)OCc2c1cc1n(c2=O)Cc2cc3ccccc3nc2-1 (stereo not given)",
    "value.unit": "µM",
    "TGI": 0.221
  }
]

Ask: # get_value(readout='TGI', item= CCN(CC)CCCC(C)Nc1c2ccc(Cl)cc2nc2cc(Cl)ccc12 (stereo not given) )
Reply: 21.2

Ask: # get_value(readout='TGI', item= CCC(=O)N(c1ccccc1)C(C)CN1CCC(O)(c2cccc(C(F)(F)F)c2)CC1 (stereo not given) )
Reply: 55.4
